- System: MOLT-4
- procedureText: NCI tumour cell line growth inhibition, 48 h
The source made the active and inactive calls. Cut-off read from the data, not from the text of the source: active = GI50 up to about 1.1 µM and inactive = higher.
Below: a set of entries, each annotated with reported GI50.

Past entries and their recorded results:
{"columns": ["compound", "measure", "value"],
 "data": [
  ["COc1ccc(OC)c(C2CCc3nc4nc(N)nc(N)c4cc3C2)c1 (stereo not drawn)", "GI50", "2.12 µM (inactive)"],
  ["C[n+]1cn(-c2nc3ccccc3nc2[N-]S(=O)(=O)c2ccccc2)c2ccccc21", "GI50", "> 100 µM (inactive)"],
  ["C=C(Br)CN(C#N)CC(=C)Br", "GI50", "> 100 µM (inactive)"]
]}

Summary for this compound, NCCC1CN(C(=O)OCc2ccccc2)c2ccccc21 (stereo not drawn) : GI50 is 12 µM (inactive)

Per the record, `C/C(=N\NC(=O)C(N)=O)c1c(O)cc(C)oc1=O` has GI50 of > 100 µM (inactive)

Quick note, GI50 for CN1CCOC1(C)CO (stereo not drawn) landed at > 100 µM (inactive)

Lookup result for `Cc1ccc2c(c1)CN1c3ccc(C)cc3CN2C1c1ccccc1O` ; measured GI50: 35.2 µM (inactive)

GI50 reading for `C/C(=N\NS(=O)(=O)c1ccc([N+](=O)[O-])cc1)c1ccc[n+]([O-])n1` : 2.92 µM (inactive)

compound `CC(=O)C(=C(I)I)c1ccccc1` , GI50 observed: 13.4 µM (inactive)

###

- Tested on: DLD-1
- procedureText: NCI tumour cell line growth inhibition, 48 h
Calls of active or inactive are those of the source. Cut-off read from the data, not from the text of the source: active = GI50 up to about 1.1 µM and inactive = higher.
measure: GI50

Sample answers from the record:
{"columns": ["molecule", "GI50"],
 "data": [
  ["COc1ccc2c(c1)C=C([N+](=O)[O-])C(C1OC(C)(C)OC1C1COC(C)(C)O1)O2 (configuration not stated)", "1.51 µM (inactive)"],
  ["CC1CN1C(=O)NCCCCCCNC(=O)N1CC1C (configuration not stated)", "> 100 µM (inactive)"],
  ["CC(C)(C)c1ccc(OCCOCCOc2ccc(C(C)(C)C)cc2S(N)(=O)=O)c(S(N)(=O)=O)c1", "99.5 µM (inactive)"],
  ["CC1(C)OC2C(CO)OC(N/C(=N/C#N)Oc3ccccc3)C2O1 (configuration not stated)", "> 100 µM (inactive)"],
  ["CC1CCC2(CC1)NN=c1s/c(=C\\c3ccc(O)cc3)c(=O)n1N2 (configuration not stated)", "> 100 µM (inactive)"]
]}

Measured on DLD-1, `Nc1nc(N)c(-c2ccccc2)c(C(=O)Nc2ccc(Cl)c(Cl)c2)n1` has a documented GI50 of > 100 µM (inactive)

For the molecule CN1CCOC(c2ccccc2)O1 (configuration not stated) , the measured GI50 on DLD-1 was > 100 µM (inactive)

###

- Tested on: OVCAR-8
- procedureText: NCI tumour cell line growth inhibition, 48 h
Active and inactive are the calls of the source. No stated cut-off is given here; in the data, active = GI50 up to about 1.1 µM and inactive = higher. Where a SMILES comes first, the peptide text is derived from it. The star is where a group is joined. Boc = CC(C)(C)OC(=O)*
Bench note: report the call from active, inactive

Worked set:
{"columns": ["compound", "group"],
 "data": [
  ["NCCC1([N+](=O)[O-])C=CN=CC1 (centres undefined)", "inactive"],
  ["O=[N+]([O-])c1ccc(C2CC(c3ccc(NCc4nc5ccccc5[nH]4)cc3)=NO2)cc1 (centres undefined)", "inactive"],
  ["CC(NC(=O)C1CCCN1C(=O)CNC(=O)OC(C)(C)C)C(=O)O (stereo not drawn) (Boc-Gly-Pro-Ala-OH; configuration not given here)", "inactive"],
  ["COc1ccc2c(c1)CC[C@@H]1[C@@H]2CC[C@]2(C)/C(=N/OCCN3CCCCC3)CC[C@@H]12", "inactive"],
  ["O=C1C=C(Nc2ccc(Cl)cc2C(=O)c2ccccc2)c2ccccc2C1=O", "inactive"],
  ["CCC1CN(C(=O)c2ccccc2)C(Cc2c[nH]c3ccccc23)C(=O)C1CC(=O)OC (centres undefined)", "inactive"],
  ["COc1ccc(/C=C2\\CN(C)Cc3c2nc(N)nc3-c2ccc(OC)cc2)cc1", "inactive"],
  ["COc1ccccc1CNCc1nc2ccccc2[nH]1", "inactive"],
  ["CN(C)c1ccc(C=c2c3ccccc3n3c2c2ccccc2[n+]3C)cc1", "active"],
  ["CO[C@@H]1C[C@H]2[C@@H]3CC[C@H]([C@H](C)CO)[C@@]3(C)CC[C@@H]2[C@@]2(C)CC[C@H]3C[C@]312", "inactive"]
]}

Query :: Please indicate how the test categorized `CCCCCCCCCCCCCC(=S)N/C=C/OC` .
Result :: inactive

Query :: Please share the test call associated with `CC(=O)C(=C(I)I)c1ccccc1` .
Result :: inactive

Query :: # fetch the recorded call for `CCOC(=O)c1c(SC(=O)c2cc(OC)c(OC)c(OC)c2)n(-c2ccccc2)c(=S)n(-c2ccccc2)c1=O` here
Result :: inactive

Query :: // param item: `O=C1C(c2ccccc2)=C(c2ccccc2)C(c2ccc(-c3ccc(C4=C(c5ccccc5)C(=O)C(c5ccccc5)=C4c4ccccc4)cc3)cc2)=C1c1ccccc1` ; yields the recorded call
Result :: inactive

Query :: Test call, this compound: `CCC[N+](C)(C)CCCNC(=O)c1c(O)c2ccccc2[nH]c1=O`
Result :: inactive

Query :: Hi, do you know how `CC(=O)O[C@H]1CC[C@@]2(C)C(=CC[C@@H]3[C@@H]2CC[C@]2(C)c4c(C)n[nH]c4C[C@@H]32)C1` came out in this test?
Result :: inactive

Query :: Which outcome did this test record for the compound CC1CC(C)[C@H](O)C([C@H](O)CC2CC(=O)N(C)C(=O)C2)C1 (some centres undefined) ?
Result :: inactive

###

- Tested on: U-251
- procedureText: NCI tumour cell line growth inhibition, 48 h
The source made the active and inactive calls. Cut-off read from the data, not from the text of the source: active = GI50 up to about 1.1 µM and inactive = higher.
// one of active, inactive, no free text

Solved cases below.
{"columns": ["compound", "group"],
 "data": [
  ["O=C1C=C(Nc2ccc(Cl)cc2C(=O)c2ccccc2)c2ccccc2C1=O", "inactive"],
  ["CC1=NN(C(=O)CC(=O)Nc2ccccc2Cl)C(=O)C1/N=N\\c1ccc(S(=O)(=O)c2ccc(/N=N/C3C(=O)N(C(=O)CC(=O)Nc4ccccc4Cl)N=C3C)cc2)cc1 (stereo unspecified)", "inactive"],
  ["CC[C@@H](C)[C@H]([C@H](CC(=O)N1CCC[C@@H]1[C@@H](OC)[C@H](C)C(=O)N[C@H](Cc1ccccc1)c1nccs1)OC)N(C)C(=O)[C@H](NC(=O)[C@@H](C(C)C)N(C)C)C(C)C", "active"],
  ["COc1ccc(C2C(C=O)C(N3CCN(C)CC3)=Nc3nc4ccccc4n32)cc1 (stereo unspecified)", "inactive"],
  ["O=C1C(Cl)C(c2ccc(O)cc2)N1n1cnc2ccccc2c1=O (stereo unspecified)", "inactive"]
]}

Field: next compound
Query :: Check the results log: what was the call for CCOC(=O)C1C=C2O[C@@H]3OC4(CCCCC4)O[C@@H]3C2[C@H]2C(=O)C=CC(=O)[C@@]12C(=O)OC (stereo partly specified) ?
Result :: inactive

###

- Test system: HCC 2998
- procedureText: NCI tumour cell line growth inhibition, 48 h
The source made the active and inactive calls. Cut-off read from the data, not from the text of the source: active = GI50 up to about 1.1 µM and inactive = higher.
Reply using exactly one outcome from active, inactive

// known answers, use as guide
{"columns": ["compound", "testedSystem", "group"],
 "data": [
  ["CN(CCCCCl)P(=O)(OCc1ccc([N+](=O)[O-])o1)OC[C@H]1O[C@@H](n2cc(F)c(=O)[nH]c2=O)C[C@@H]1O (stereo partly drawn)", "HCC 2998", "active"],
  ["COC(=O)c1c(-c2ccccc2)cc2c3cc(-c4ccccc4)c(C(=O)OC)n3c3ccccc3n12", "HCC 2998", "inactive"],
  ["COc1ccc2c(c1)CC[C@@H]1[C@@H]2CC[C@]2(C)/C(=N/OCCN3CCCC3)CC[C@@H]12", "HCC 2998", "inactive"],
  ["CO[C@@H]1C[C@H]2[C@@H]3CC[C@H]([C@H](C)CO)[C@@]3(C)CC[C@@H]2[C@@]2(C)CC[C@H]3C[C@]312", "HCC 2998", "inactive"],
  ["Cc1c2c(OCC(O)CN3CCN(c4ccccc4)CC3)nn(C)c(=O)c2c(C)n1-c1ccccc1 (stereo not drawn)", "HCC 2998", "inactive"]
]}

Query :: Answer briefly: the call reported for COC1/C=C/O[C@@]2(C)Oc3c(C)c(O)c4c(O)c(cc(O)c4c3C2=O)NC(=O)/C(C)=C\C=C\[C@H](C)C(O)[C@@H](C)[C@@H](O)[C@@H](C)[C@H](OC(C)=O)[C@@H]1C (stereo partly drawn) in this assay.
Result :: inactive

Query :: Test call, this compound: `c1ccc2c(c1)/C(=N\NC1=NCCN1)c1nc3ccccc3nc1-2`
Result :: inactive

Query :: Status in this test for `Cc1nn(-c2nc3ccccc3s2)c2c1C(=O)c1ccccc1-2` ?
Result :: inactive
